Target: T1, TGFβ3 (R&D Systems)
T1 sequence (P10600 301-412, species assumed, looked up): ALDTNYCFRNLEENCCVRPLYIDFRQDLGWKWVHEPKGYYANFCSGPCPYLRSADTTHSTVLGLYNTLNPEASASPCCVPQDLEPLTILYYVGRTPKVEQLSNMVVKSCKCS
Experiment: SPR (Biacore T200), TGFβ amine-coupled to chip, 1:1 fit
readout.name: Kd (pM)
The answer is to be given in pM; state only the numeric part.

1) Felinized anti-TGFβ1,2,3 antibody VH3.2 - VL8 (antibody, V domains shown) VH: DVQLVESGGDLVKPGGSLRLTCVASGYTFSSNVMHWVRQAPGKGLQWVAYVIPIVDIAYYADSVKGRFTISIDNSKNTLYLQMNSLKTEDTATYYCARTLGLVLDAMDYWGQGTLVTVSS VL: DIVMTQSPGSLAGSPGQQVTMNCRASQSLGSSYLAWYQQKPGQHPELLIYGASSRAPGVPDRFSGSGSGTDFTLTISNLQAEDVANYYCQQYADSPITFGQGTKLEIKR	46.6
2) Felinized anti-TGFβ1,2,3 antibody VH3.2 - VL1 (antibody, V domains shown) VH: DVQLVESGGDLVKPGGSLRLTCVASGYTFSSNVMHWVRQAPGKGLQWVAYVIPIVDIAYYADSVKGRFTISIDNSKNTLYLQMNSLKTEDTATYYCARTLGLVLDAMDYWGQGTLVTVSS VL: ETVLTQSPGTLSLSPGERATLSCRASQSLGSSYLAWYQQKPGQAPRLLIYGASSRAPGIPDRFSGSGSGTDFTLTISRLEPEDFAVYYCQQYADSPITFGQGTKLEIKR	5.1

Please examine the following record next.
Given the entry Felinized anti-TGFβ1,2,3 antibody VH2.8 - VL6 (antibody, V domains shown) VH: QVQLVQSGAEVKKPGSSVKVSCKASGYTFSSNVISWVRQTPAQGFEWMGGVIPIVDIANYAQRFKGRLVLTADTSTNTAYMELRSLKSADTAVYYCASTLGLVLDAMDYWGQGTLVTVSS VL: QSVLTQPPSVSGSLGQRVTISCRASQSLGSSYLAWYQQVPGRAPRLLIYGASSRAPGIPDRFSGSKSGTSGSLTITGLEADDEADYYCQQYADSPITFGGGTHLTVLG , report its measured Kd.
2410
